Reported melting point values follow for various molecules
Quantity kind: melting point

| Molecule | Result |
| --- | --- |
| CC(C)(CO)NC(=O)c1nn(-c2ccc(F)cc2F)c2c1C1CCC2CC1 | 128 to 131 °C |
| Nc1ccc2c(c1)C(NC(=O)C(F)(F)F)CC2 (stereo unspecified) | 133 to 134 °C |
| COc1c(Cl)ccc(-c2nc(C(=O)Cl)cc(Cl)c2Cl)c1F | 134 to 136 °C |
| CCCC1CCC(c2cc(F)c(C(F)(F)Oc3ccc(-c4cc(F)c(C(F)(F)F)c(F)c4)c(F)c3)c(F)c2)OC1 (stereo unspecified) | 95 °C |
| CCCCc1oc2ccccc2c1C(=O)O | 106 to 110 °C |
| CN(C=O)CNC(=O)c1snc(Cl)c1Cl | 87 to 88 °C |
| COc1ccc(C(=O)Cc2ccccc2)cc1 | 68 to 69 °C |
| Cn1c(Sc2cccc(C(F)(F)F)c2)nc2c(-c3cccc(C(=O)NCCO)c3)cccc21 | 138 to 139 °C |
| CCC(=O)OCC1(COC(=O)CC)c2ccccc2-c2ccccc21 | 82 to 83 °C |
| O=C(O)c1cccc([N+](=O)[O-])c1SCc1ccccc1 | 152 to 153 °C |
| NC1CNC(=O)C12CC2 (stereo unspecified) | 97 to 99 °C |

---

Entries and their measured melting point follow.

| Compound | melting point |
| --- | --- |
| C#CCOC(=O)C=C(C)C=CC=C(C)C=Cc1c(C)cc(OC)c(C)c1C | 94 to 95 °C |
| CC(=O)SCC(Cc1ccccc1)C(=O)Nc1cccc(C(=O)O)c1 (centres undefined) | 169 to 170 °C |
| COc1cc(COC(=O)NC2Cc3ccccc3C2)ccc1OC(C)=O | 114 to 116 °C |
| N=C(NO)c1cnn2c(C(F)(F)F)cc(-c3ccc(C(F)(F)F)cc3)nc12 | 252 °C |
| CN(C)[C@H]1CC[C@H](Nc2ncc3ncnc(Nc4ccc(OCc5ccccc5)cc4)c3n2)CC1 | 155 °C |
| CC(C)c1nc(C(O)(C(F)(F)F)C(F)(F)F)[nH]c1-c1ccccc1 | 80 to 81 °C |
| CCCn1c(=O)n2c(-c3ccc(C(=O)O)cc3)nnc2c2c1ncn2C | > 315 °C |
| Cc1cc(C)c(Nc2nc(C)ccc2S(=O)(=O)c2ccc(OCc3cccc(F)c3F)cc2)c(C)c1 | 136 to 138 °C |
| Cn1cc(C(=O)O)cc1C(=O)c1ccccc1 | 210 to 212 °C |

---

| Compound | melting point |
| --- | --- |
| COc1cc(C(=O)NS(=O)(=O)c2ccccc2Cl)ccc1Cc1cn(C)c2ccc(CCNC(=O)N3CCOCC3)cc12 | 175 to 181 °C |
| O=C(Cc1ccc2nc(CCCOc3cccc(CN4CCCC4)c3)[nH]c2c1)N1CCCC1 | 68 °C |
| COc1ccc(Cc2nc3c(c4c2[nH]c2ccccc24)CCC(C)(C)C3)cc1 | 158 °C |
| Cc1cn(C(C)C(=O)N(C)C)nc1-c1ccccc1Br (stereo not given) | 102 to 104 °C |
| CC(=O)NCCc1c[nH]c2ncccc12 | 168 °C |
| O=C(Nc1ccccc1S(=O)(=O)N1CCCCC1)N[C@@H](Cc1ccc(NC(=O)c2c(Cl)cncc2Cl)cc1)C(=O)O | 223 °C |
| O=C(c1ccc(C(=O)N2CCC[C@@H]3CCCC[C@H]32)cc1)N1CCCCC1 (relative stereo) | 136 to 137 °C |
| N#CC(c1ccc(Cl)c(Cl)c1)c1c(Cl)cc(N)cc1Cl (stereo not given) | 191 to 194 °C |
| O=C(O)Cc1c(C(=O)c2ncc[nH]2)[nH]c2ccc(Cl)cc12 | 253 to 254 °C |
| COC(=O)c1ccnc(N2CCN(CC3CC3)C2=O)c1 | 75 to 77 °C |
| NS(=O)(=O)c1ccc(C2=C(c3ccc(F)c(F)c3)CCC2)cc1 | 147 to 148 °C |
| Cc1ccc(-c2c(O)c(=O)c3ccccc3n2C)cc1 | 216 to 218 °C |
| OC(Cc1ccccn1)c1ccccc1 (stereo not given) | 105 to 107 °C |
| CCCCCCCN(CCOCCSc1nc(-c2ccc(OC)cc2)c(-c2ccc(OC)cc2)[nH]1)C(=O)NC(C)C | 85 to 87 °C |
| O=C(Nc1ncccn1)Nc1ccccc1C(F)(F)F | 224 to 225 °C |
| CCCC1=NN(c2ccncc2)C(=O)C1=CNc1ccccc1CC | 159 °C |
| CC12CCC(=O)C=C1CCC1C2CCC2(C)C1CC(O)C2NCC(=O)C(F)(F)F (stereo not given) | 217 to 220 °C |
| Cc1c(NC(=O)c2ccc(C#CC3(O)CCC3)cc2)ccc2cc(CNCC(C)C)n(C)c12 | 222 to 223 °C |
| O=CNc1nc(-c2cccnc2)c(Cl)s1 | 229 °C |
| Cn1c(C(F)(F)F)cc(=O)n(-c2ccc(Cl)c(C3OCCCO3)c2)c1=O | 87 to 92 °C |
